Tested on: TAB113
Test: qHTS profiling for inhibitors of Plasmodium falciparum proliferation (AID 504749); also: nearly all actives have a fitted effect of over 60% in size
Settings: P. falciparum in erythrocytes, SYBR Green DNA, 72 h; series mostly up to 28.7 µM
Procedure: NIH National Institute of Allergy and Infectious Diseases [NIAID] NIH Chemical Genomics Center [NCGC] […] Because mature erythrocytes lack DNA, only Plasmodium-derived DNA is detected. NCGC Assay Protocol Summary: The SYBR Green viability assay was adapted from a method described previously (Plouffe et al., 2008). […] The following morning, fluorescence intensity at 485(14) nm excitation and 535(25) nm emission wavelengths was measured on an EnVision (Perkin Elmer) plate reader. […]
Inconclusive results are not listed. Activity calls are given as the source filed them. Calls follow the shape of the dose curve; as a rule, active = well fitted inhibition curve with a large enough effect; inconclusive = small, poorly fitted or top-dose-only effect; inactive = flat fitted curve, though single readings scatter.
Permitted responses: true (1) for active, false (0) for inactive

# count of solved cases: 3
{"COMPOUND": "O=C(OCC1OC(OC(=O)c2cc(O)c(O)c(OC(=O)c3cc(O)c(O)c(O)c3)c2)[C@@H](OC(=O)c2cc(O)c(O)c(OC(=O)c3cc(O)c(O)c(O)c3)c2)C(OC(=O)c2cc(O)c(O)c(OC(=O)c3cc(O)c(O)c(O)c3)c2)C1OC(=O)c1cc(O)c(O)c(OC(=O)c2cc(O)c(O)c(O)c2)c1)c1cc(O)c(O)c(OC(=O)c2cc(O)c(O)c(O)c2)c1 (some centres undefined)", "ASSAYED TARGET": "TAB113", "CLASS LABEL": "true (1)"}
{"COMPOUND": "CCC(Oc1ccccc1)C(=O)NC1C(=O)N2C1SC(C)(C)C2C(=O)O (centres undefined)", "ASSAYED TARGET": "TAB113", "CLASS LABEL": "false (0)"}
{"COMPOUND": "CC1(C)C(/C=C/C=C/C=C/C=C2\\N(CCCCS(=O)(=O)O)c3ccc4ccccc4c3C2(C)C)=[N+](CCCCS(=O)(=O)[O-])c2ccc3ccccc3c21", "ASSAYED TARGET": "TAB113", "CLASS LABEL": "false (0)"}

Field: next compound
Task: For CCC(C)C1NC(=O)C(Cc2ccc(O)cc2)NC(=O)C(N)CSSCC(C(=O)N2CCCC2C(=O)NC(CC(C)C)C(=O)NCC(N)=O)NC(=O)C(CC(N)=O)NC(=O)C(CCC(N)=O)NC1=O (centres undefined) , what call appears in the results of this test?
Result: false (0)

###

target: Cytochrome P450 2D6 (Homo sapiens) (UniProt P10635); assay: qHTS Assay for Inhibitors and Substrates of Cytochrome P450 2D6 (AID 891); details: recombinant CYP2D6, luciferin-ME EGE luminescence; series mostly up to 11.4 µM;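 also: luciferin methyl ether substrate demethylated by CYP2D6 with NADPH regeneration; nearly all actives have a fitted effect of over 60% in size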
Sequence (P10635 whole entry, looked up): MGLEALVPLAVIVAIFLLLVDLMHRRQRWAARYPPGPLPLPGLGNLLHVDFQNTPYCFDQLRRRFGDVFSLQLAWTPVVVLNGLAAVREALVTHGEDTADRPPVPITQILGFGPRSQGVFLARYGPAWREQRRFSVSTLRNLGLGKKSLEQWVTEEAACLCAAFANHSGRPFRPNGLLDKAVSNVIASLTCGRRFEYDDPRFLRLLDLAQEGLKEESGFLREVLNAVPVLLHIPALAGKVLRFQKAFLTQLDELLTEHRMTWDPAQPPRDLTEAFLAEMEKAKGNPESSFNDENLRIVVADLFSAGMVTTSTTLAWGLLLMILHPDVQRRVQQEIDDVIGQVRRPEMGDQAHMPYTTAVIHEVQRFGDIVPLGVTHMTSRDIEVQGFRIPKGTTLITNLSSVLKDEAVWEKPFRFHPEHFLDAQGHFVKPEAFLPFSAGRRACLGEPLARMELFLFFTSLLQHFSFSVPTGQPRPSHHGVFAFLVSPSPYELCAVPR
Inconclusive results are not listed. Active and inactive are the calls of the source. Calls come from the whole dose curve; as a rule, active = well fitted inhibition curve with a large enough effect; inconclusive = small, poorly fitted or top-dose-only effect; inactive = no such curve, though single readings can be large or run the other way.
ASSAY READOUT: outcome

Below, 4 compounds whose answers are already recorded.
{"COMPOUND": "CO[C@H]1COC(=O)CCC[C@H](C)[C@H](OC)COC(=O)C/C=C\\[C@@H]1C", "ASSAYED TARGET": "Cytochrome P450 2D6 (Homo sapiens) (UniProt P10635)", "ASSAY READOUT": "outcome", "OBSERVED VALUE": "inactive"}
{"COMPOUND": "COC(=O)C1=C(C)N(Cc2ccccc2)[C@]23O[C@](C(=O)OC)(C(=O)N2C1c1ccccc1)C1C(=O)N(c2ccccc2)C(=O)C13 (stereo not given in full)", "ASSAYED TARGET": "Cytochrome P450 2D6 (Homo sapiens) (UniProt P10635)", "ASSAY READOUT": "outcome", "OBSERVED VALUE": "inactive"}
{"COMPOUND": "COC(=O)NC(c1ccc(Cl)cc1)C(C(C)=O)C(=O)OC (stereo not given)", "ASSAYED TARGET": "Cytochrome P450 2D6 (Homo sapiens) (UniProt P10635)", "ASSAY READOUT": "outcome", "OBSERVED VALUE": "inactive"}
{"COMPOUND": "COc1ccc(C#CC2C=CC(OC(C)=O)C(COC(C)=O)O2)cc1 (stereo not given)", "ASSAYED TARGET": "Cytochrome P450 2D6 (Homo sapiens) (UniProt P10635)", "ASSAY READOUT": "outcome", "OBSERVED VALUE": "inactive"}

Now for a further compound.
Task: Please list outcome recorded for the compound C=C(C)C(O)/C=C/c1ccc(OC)cc1 (stereo not given)
Result: inactive
